SYSTEM UNDER TEST: T1, Mad2^R133A (human, UniProt Q13257 1-205, R133A)
T1 construct: Mad2, human, full-length, R133A; Tag is followed by a TEV site; 15N-labelled for NMR; Starts in the open state; also called O-Mad2^R133A; C-Mad2^R133A; source: E. coli BL21 Star (DE3) with pRARE, purified
T1 sequence (Q13257 whole entry R133A): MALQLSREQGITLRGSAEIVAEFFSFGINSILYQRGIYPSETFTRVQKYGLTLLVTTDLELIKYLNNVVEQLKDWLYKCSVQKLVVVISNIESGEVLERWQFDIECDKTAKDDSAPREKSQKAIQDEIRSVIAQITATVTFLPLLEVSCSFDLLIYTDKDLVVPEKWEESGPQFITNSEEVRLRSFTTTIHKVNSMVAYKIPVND
ASSAY REMARKS: time-resolved NMR (series of 2D 1H,15N HSQC spectra); 100 μM 15N Mad2 variant, MIM peptide at two-fold molar excess, 25°C, 20 mM HEPES pH 7.0, 100 mM NaCl, 1 mM TCEP, 5% D2O; Trp75 and Trp167 indole NH resonances as reporters of the ligand-bound closed state; 12 min per spectrum, up to 24 h
PROTOCOL CONDITIONS: both partners purified
METRIC: binding result

FDVEEAKILRLSGKPQNAPEGYQNRLKVLY (also called MIM peptide; source: synthetic peptide (Cambridge Research Biochemicals)) [Cdc20^MIM-123-152] ... binds
RALQGDYDQSRTKVLHMSLNPT (source: synthetic peptide (Cambridge Research Biochemicals)) [Mad1^MIM-529-550] ... binds
SWYSYPPPQRAV (source: synthetic peptide (Cambridge Research Biochemicals)) [MBP1^MIM] ... binds
FDVEEAKILRLSGKP (source: synthetic peptide (Cambridge Research Biochemicals)) [Cdc20^MIM-123-137] ... binds

Where do the numbers come from? From paper PMC11947619.
